experiment: Antiproliferative activity against human KB3-1 cells after 72 hrs; format: functional, cell-based; details: KB 3-1, 72 h
PROPERTY NAME: pIC50
Lab note — pIC50 values are minus log10 of concentrations in M.

Examples from the recorded data:
{"columns": ["COMPOUND", "pIC50"],
 "data": [
  ["COC(=O)[C@]1(C)[C@@H]2CC[C@]3(C)\\C(=C(C)/C=C/C=C(C)/C=C/C=C(C)C)C(=O)C[C@H]3[C@@]2(C)CC[C@H]1OC(C)=O (stereo in doubt)", 4.85],
  ["CC(C)=C/C=C/C(C)=C/C=C/C(C)=C1/C(=O)C[C@H]2CC3(CC[C@]12C)OCCO3", 4.70],
  ["CC(C)=C/C=C/C(C)=C/C=C/C(C)=C1/C(=O)C[C@H]2CC(=O)CC[C@]12C", 4.77]
]}

Turning to the following compound.
Request the reported pIC50 associated with CC(C)=C/C=C/C(C)=C/C=C/C(C)=C1/CC[C@H]2CC3(CC[C@]12C)OCCO3
4.68
